- System: Staphylococcus aureus
- assay_overview: Antibacterial activity against Staphylococcus aureus ATCC 25923 assessed as growth inhibition by serial plate dilution method
- Assay type: functional
endpoint_label: MIC (µg/mL)
All answers are understood in µg/mL, so give the number only.

# molecule `COc1ccc(Br)c(C(=O)N/N=C\c2cccc3cc(OC)ccc23)c1` ; its MIC = 6.25

# molecule `COc1ccc(/C=N\NC(=O)c2cc(OC)ccc2Br)cc1` ; its MIC = 12.5

# molecule `COc1ccc(/C=N\NC(=O)c2cc(OC)ccc2Br)c(OC)c1` ; its MIC = 12.5

# molecule `COc1ccc(Br)c(C(=O)N/N=C\c2ccccc2Cl)c1` ; its MIC = 12.5

# molecule `COc1ccc(Br)c(C(=O)N/N=C\c2ccccc2O)c1` ; its MIC = 12.5

# molecule COc1ccc(Br)c(C(=O)NN2C(=O)CSC2c2ccc(O)c(OC)c2)c1 (stereo not drawn) ; its MIC = 6.25

# molecule `COc1ccc(Br)c(C(=O)N/N=C\c2cccc(Cl)c2)c1` ; its MIC = 25

# molecule `COc1ccc(Br)c(C(=O)N/N=C\c2ccc(-c3ccccc3)cc2)c1` ; its MIC = 25

# molecule COc1ccc(Br)c(C(=O)NN2C(=O)CSC2c2cccnc2)c1 (stereo not drawn) ; its MIC = 6.25

# molecule COc1ccc(Br)c(C(=O)NN2C(=O)CSC2c2ccccc2Cl)c1 (stereo not drawn) ; its MIC = 6.25

# molecule COc1ccc(Br)c(C(=O)NN2C(=O)CSC2c2cccc3cc(OC)ccc23)c1 (stereo not drawn) ; its MIC = 12.5

# molecule `COc1ccc(Br)c(C(=O)N/N=C\c2ccccc2)c1` ; its MIC = 12.5

# molecule COc1ccc(Br)c(C(=O)NN2C(=O)CSC2c2ccc(-c3ccccc3)cc2)c1 (stereo not drawn) ; its MIC = 12.5

====

Kindly supply the reported Time values for the records listed here.
- Test system: Mus musculus
- assay_overview: Analgesic activity in Mus musculus […] albino (mouse) assessed as time taken to tail withdrawl at 100 mg/kg, po administered through intragastric tube after 120 min by tail flick test (reference value: 1.363 +/- 0.1297 secs)
- Assay type: functional

# compound COc1ccc(Br)c(C(=O)NN2C(=O)CSC2c2cccnc2)c1 (stereo not drawn) ; its Time = 3.6 s

# compound COc1ccc(Br)c(C(=O)NN2C(=O)CSC2c2ccccc2O)c1 (stereo not drawn) ; its Time = 3.623 s

# compound COc1ccc(Br)c(C(=O)NN2C(=O)CSC2c2ccc(O)cc2)c1 (stereo not drawn) ; its Time = 2.775 s

# compound COc1ccc(Br)c(C(=O)NN2C(=O)CSC2c2cccc(Cl)c2)c1 (stereo not drawn) ; its Time = 2.8 s

# compound COc1ccc(Br)c(C(=O)NN2C(=O)CSC2c2ccc(-c3ccccc3)cc2)c1 (stereo not drawn) ; its Time = 3.313 s

# compound COc1ccc(C2SCC(=O)N2NC(=O)c2cc(OC)ccc2Br)cc1 (stereo not drawn) ; its Time = 2.575 s

# compound COc1ccc(Br)c(C(=O)NN2C(=O)CSC2c2ccc(C)cc2)c1 (stereo not drawn) ; its Time = 2.088 s

# compound COc1ccc(Br)c(C(=O)NN2C(=O)CSC2c2cccc3cc(OC)ccc23)c1 (stereo not drawn) ; its Time = 2.214 s

# compound COc1ccc(Br)c(C(=O)NN2C(=O)CSC2c2ccc(O)c(OC)c2)c1 (stereo not drawn) ; its Time = 3.334 s

# compound COc1ccc(Br)c(C(=O)NN2C(=O)CSC2c2ccc(Cl)cc2)c1 (stereo not drawn) ; its Time = 2.788 s

# compound COc1ccc(Br)c(C(=O)NN2C(=O)CSC2c2ccc([N+](=O)[O-])cc2)c1 (stereo not drawn) ; its Time = 3.263 s

# compound COc1ccc(Br)c(C(=O)NN2C(=O)CSC2C2=C(Cl)c3ccccc3C(c3ccc(Cl)c(Cl)c3)C2)c1 (stereo not drawn) ; its Time = 3.388 s

# compound COc1ccc(Br)c(C(=O)NN2C(=O)CSC2c2ccccc2OC)c1 (stereo not drawn) ; its Time = 2.075 s

# compound COc1ccc(C2SCC(=O)N2NC(=O)c2cc(OC)ccc2Br)c(OC)c1 (stereo not drawn) ; its Time = 3.075 s

# compound COc1ccc(Br)c(C(=O)NN2C(=O)CSC2c2ccc(F)cc2)c1 (stereo not drawn) ; its Time = 3.421 s

# compound CC(C)=CCN1CC[C@]2(C)c3cc(O)ccc3C[C@H]1[C@H]2C [(+)-PENTAZOCINE] ; its Time = 6.863 s

# compound COc1ccc(Br)c(C(=O)NN2C(=O)CSC2c2ccccc2Cl)c1 (stereo not drawn) ; its Time = 2.125 s

# compound COc1ccc(Br)c(C(=O)NN2C(=O)CSC2c2ccccc2)c1 (stereo not drawn) ; its Time = 3.563 s

====

- Tested on: Escherichia coli
- assay_overview: Antibacterial activity against Escherichia coli ATCC 25922 assessed as growth inhibition by serial plate dilution method
- Format: functional
Kindly supply the reported MIC values for the records listed here.
All answers are understood in mg/L, so give the number only.

# molecule `COc1ccc(Br)c(C(=O)N/N=C\c2ccccc2O)c1` ; its MIC = 6.25

# molecule `COc1ccc(Br)c(C(=O)N/N=C\c2ccccc2OC)c1` ; its MIC = 12.5

# molecule COc1ccc(C2SCC(=O)N2NC(=O)c2cc(OC)ccc2Br)c(OC)c1 (stereo not given) ; its MIC = 12.5

# molecule `COc1ccc(Br)c(C(=O)N/N=C\c2cccc(Cl)c2)c1` ; its MIC = 12.5

# molecule `COc1ccc(/C=N\NC(=O)c2cc(OC)ccc2Br)c(OC)c1` ; its MIC = 6.25

# molecule COc1ccc(Br)c(C(=O)NN2C(=O)CSC2c2ccc(O)cc2)c1 (stereo not given) ; its MIC = 6.25

# molecule COc1ccc(Br)c(C(=O)NN2C(=O)CSC2c2cccc(Cl)c2)c1 (stereo not given) ; its MIC = 12.5

# molecule COc1ccc(Br)c(C(=O)NN2C(=O)CSC2c2ccccc2)c1 (stereo not given) ; its MIC = 12.5

# molecule `COc1ccc(Br)c(C(=O)N/N=C\c2ccc([N+](=O)[O-])cc2)c1` ; its MIC = 6.25

# molecule COc1ccc(Br)c(C(=O)NN2C(=O)CSC2c2ccc(C)cc2)c1 (stereo not given) ; its MIC = 12.5

# molecule `COc1ccc(Br)c(C(=O)N/N=C\c2ccc(-c3ccccc3)cc2)c1` ; its MIC = 25

# molecule COc1ccc(Br)c(C(=O)NN2C(=O)CSC2c2cccnc2)c1 (stereo not given) ; its MIC = 6.25

# molecule CC1(C)S[C@@H]2[C@H](NC(=O)Cc3ccccc3)C(=O)N2[C@H]1C(=O)O [PENICILLIN G] ; its MIC = 0.12

# molecule COc1ccc(Br)c(C(=O)NN2C(=O)CSC2c2ccc(-c3ccccc3)cc2)c1 (stereo not given) ; its MIC = 6.25

# molecule COc1ccc(Br)c(C(=O)NN2C(=O)CSC2c2ccccc2O)c1 (stereo not given) ; its MIC = 12.5

# molecule `COc1ccc(/C=N\NC(=O)c2cc(OC)ccc2Br)cc1` ; its MIC = 12.5

# molecule `COc1ccc(Br)c(C(=O)N/N=C\c2ccc(F)cc2)c1` ; its MIC = 12.5

# molecule `COc1ccc(Br)c(C(=O)N/N=C\c2cccc3cc(OC)ccc23)c1` ; its MIC = 12.5

# molecule COc1ccc(Br)c(C(=O)NN2C(=O)CSC2c2ccccc2OC)c1 (stereo not given) ; its MIC = 12.5

# molecule COc1ccc(Br)c(C(=O)NN2C(=O)CSC2c2ccc([N+](=O)[O-])cc2)c1 (stereo not given) ; its MIC = 6.25

# molecule COc1ccc(Br)c(C(=O)NN2C(=O)CSC2c2cccc3cc(OC)ccc23)c1 (stereo not given) ; its MIC = 6.25

# molecule `COc1ccc(Br)c(C(=O)N/N=C\c2ccc(O)c(OC)c2)c1` ; its MIC = 6.25

# molecule COc1ccc(Br)c(C(=O)NN2C(=O)CSC2c2ccccc2Cl)c1 (stereo not given) ; its MIC = 12.5

# molecule `COc1ccc(Br)c(C(=O)N/N=C\c2ccc(C)cc2)c1` ; its MIC = 6.25

# molecule `COc1ccc(Br)c(C(=O)N/N=C\c2ccccc2Cl)c1` ; its MIC = 6.25

# molecule COc1ccc(Br)c(C(=O)NN2C(=O)CSC2c2ccc(O)c(OC)c2)c1 (stereo not given) ; its MIC = 12.5

# molecule COc1ccc(C2SCC(=O)N2NC(=O)c2cc(OC)ccc2Br)cc1 (stereo not given) ; its MIC = 12.5

# molecule COc1ccc(Br)c(C(=O)N/N=C/C2=C(Cl)c3ccccc3C(c3ccc(Cl)c(Cl)c3)C2)c1 (stereo not given) ; its MIC = 12.5

# molecule `COc1ccc(Br)c(C(=O)N/N=C\c2ccc(O)cc2)c1` ; its MIC = 12.5

# molecule COc1ccc(Br)c(C(=O)NN2C(=O)CSC2c2ccc(F)cc2)c1 (stereo not given) ; its MIC = 6.25

# molecule `COc1ccc(Br)c(C(=O)N/N=C\c2cccnc2)c1` ; its MIC = 6.25

# molecule COc1ccc(Br)c(C(=O)NN2C(=O)CSC2c2ccc(Cl)cc2)c1 (stereo not given) ; its MIC = 12.5

# molecule `COc1ccc(Br)c(C(=O)N/N=C\c2ccc(Cl)cc2)c1` ; its MIC = 6.25

# molecule `COc1ccc(Br)c(C(=O)N/N=C\c2ccccc2)c1` ; its MIC = 12.5

# molecule COc1ccc(Br)c(C(=O)NN2C(=O)CSC2C2=C(Cl)c3ccccc3C(c3ccc(Cl)c(Cl)c3)C2)c1 (stereo not given) ; its MIC = 12.5
